Experiment: Pharmacokinetic study in rats
Type: in vivo
Settings: rat, plasma, 20 mg/kg po vs 2 mg/kg iv, read-out: F (bioavailability)
quantity: bioavailability (%)
Value expressed in %; do not type the unit.

Give bioavailability for CN(C)CCC(Oc1cccc2c1OCO2)c1ccc(OCCCN2CCCCC2)cc1.O=C(O)C(=O)O (stereo not shown) [Compound 11b]
35.6

###

Test: Pharmacokinetic study in rats
Assay type: in vivo
Conditions: rat, plasma, 20 mg/kg po
Experimental: 7. Pharmacokinetics Study The HPLC conditions were as follows: Shimadzu LC30AD spectrometer ; column, SHIMADZU C18 (2.1 mm×50 mm, 2 μm); mobile phase A: 0.1% FA-Acetonitrile; mobile phase B: 0.1% FA-Deionized water; ﬂow rate, 0.4 mL/min; column temperature: 25 °C; UV detection was performed at 210 nm. […] The plasma samples were analyzed for drug and internal standard via the LCMS/MS protocol.
quantity: MRT last (h)
Value expressed in h; do not type the unit.

Give MRT last for CN(C)CCC(Oc1cccc2c1OCO2)c1ccc(OCCCN2CCCCC2)cc1.O=C(O)C(=O)O (stereo not shown) [Compound 11b]
5.4

###

Target: M3 muscarinic cholinergic receptor (Homo sapiens, UniProt P20309)
Construct: blood lymphocytes were used at a concentration of 1 × 10⁶ cells; endogenous in cells
Sequence (P20309 whole entry): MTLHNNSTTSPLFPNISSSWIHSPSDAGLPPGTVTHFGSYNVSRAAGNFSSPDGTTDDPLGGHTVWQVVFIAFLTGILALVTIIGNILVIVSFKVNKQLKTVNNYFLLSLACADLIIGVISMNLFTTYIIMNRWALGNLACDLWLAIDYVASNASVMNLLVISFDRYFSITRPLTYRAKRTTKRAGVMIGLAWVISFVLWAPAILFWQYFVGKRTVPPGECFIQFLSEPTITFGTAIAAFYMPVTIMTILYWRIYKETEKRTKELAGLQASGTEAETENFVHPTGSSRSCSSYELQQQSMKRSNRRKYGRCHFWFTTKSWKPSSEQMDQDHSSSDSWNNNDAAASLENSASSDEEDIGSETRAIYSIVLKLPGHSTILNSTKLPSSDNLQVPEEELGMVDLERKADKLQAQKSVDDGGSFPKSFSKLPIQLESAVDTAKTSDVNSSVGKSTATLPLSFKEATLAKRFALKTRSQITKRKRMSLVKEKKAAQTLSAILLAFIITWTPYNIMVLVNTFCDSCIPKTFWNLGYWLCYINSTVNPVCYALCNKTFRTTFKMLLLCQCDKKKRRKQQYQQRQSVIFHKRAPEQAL
Assay: Muscarinic M3 receptor binding (lymphocyte suspension)
Conditions: lymphocyte suspension and sections
quantity: Ki

Give Ki for CN(C)CCC(Oc1cccc2c1OCO2)c1ccc(OCCCN2CCCCC2)cc1.O=C(O)C(=O)O (stereo not shown) [Compound 11b]
> 1000 nM

###

Target: muscarinic M1 receptor (Homo sapiens, UniProt P11229)
Construct: blood lymphocytes were used at a concentration of 1 × 10⁶ cells; endogenous in cells
Sequence (P11229 whole entry): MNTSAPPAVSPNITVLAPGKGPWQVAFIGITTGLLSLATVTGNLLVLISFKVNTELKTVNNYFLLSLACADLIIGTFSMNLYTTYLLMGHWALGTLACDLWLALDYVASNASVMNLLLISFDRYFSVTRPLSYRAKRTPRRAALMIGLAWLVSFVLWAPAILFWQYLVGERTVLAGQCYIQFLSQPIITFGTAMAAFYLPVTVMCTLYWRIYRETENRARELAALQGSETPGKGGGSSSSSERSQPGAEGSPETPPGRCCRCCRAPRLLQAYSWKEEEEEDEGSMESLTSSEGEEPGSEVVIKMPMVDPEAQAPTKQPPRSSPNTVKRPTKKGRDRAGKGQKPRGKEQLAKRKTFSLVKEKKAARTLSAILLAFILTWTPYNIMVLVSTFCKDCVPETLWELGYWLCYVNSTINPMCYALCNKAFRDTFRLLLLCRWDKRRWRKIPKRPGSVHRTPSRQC
Assay: Muscarinic M1 receptor binding (peripheral blood lymphocytes)
Details: lymphocyte suspension and sections
quantity: Ki

Give Ki for CN(C)CCC(Oc1cccc2c1OCO2)c1ccc(OCCCN2CCCCC2)cc1.O=C(O)C(=O)O (stereo not shown) [Compound 11b]
> 1 µM

###

Target: Serotonin 5-HT2A receptor (Rattus norvegicus)
Construct: The cerebral cortex of a rat was finely homogenized using an ULTRA TURAX; from tissue; host or cells: rat cerebral cortex membranes
Sequence (P14842 whole entry): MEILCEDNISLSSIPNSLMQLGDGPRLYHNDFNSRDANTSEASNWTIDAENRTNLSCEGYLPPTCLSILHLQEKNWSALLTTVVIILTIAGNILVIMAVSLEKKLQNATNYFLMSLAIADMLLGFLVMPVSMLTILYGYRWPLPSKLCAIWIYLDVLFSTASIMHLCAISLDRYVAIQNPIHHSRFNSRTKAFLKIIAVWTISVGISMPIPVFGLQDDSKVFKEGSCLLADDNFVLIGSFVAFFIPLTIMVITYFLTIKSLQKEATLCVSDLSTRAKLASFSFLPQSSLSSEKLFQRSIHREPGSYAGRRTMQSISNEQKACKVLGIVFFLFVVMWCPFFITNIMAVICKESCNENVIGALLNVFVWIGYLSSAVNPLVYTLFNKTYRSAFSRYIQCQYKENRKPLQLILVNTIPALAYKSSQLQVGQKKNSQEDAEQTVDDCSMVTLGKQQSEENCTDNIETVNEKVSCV
Experiment: Serotonin 5-HT2A receptor binding ([3H]ketanserin)
Details: rat brain cortex
quantity: pKi
Note: pKi values are expressed as the negative base-10 logarithm of concentration in M.

Give pKi for CN(C)CCC(Oc1cccc2c1OCO2)c1ccc(OCCCN2CCCCC2)cc1.O=C(O)C(=O)O (stereo not shown) [Compound 11b]
6.49

###

Molecular target: Dopamine D2 receptor (Rattus norvegicus, UniProt P61169)
Sequence (P61169 1-415 isoform P61169-2): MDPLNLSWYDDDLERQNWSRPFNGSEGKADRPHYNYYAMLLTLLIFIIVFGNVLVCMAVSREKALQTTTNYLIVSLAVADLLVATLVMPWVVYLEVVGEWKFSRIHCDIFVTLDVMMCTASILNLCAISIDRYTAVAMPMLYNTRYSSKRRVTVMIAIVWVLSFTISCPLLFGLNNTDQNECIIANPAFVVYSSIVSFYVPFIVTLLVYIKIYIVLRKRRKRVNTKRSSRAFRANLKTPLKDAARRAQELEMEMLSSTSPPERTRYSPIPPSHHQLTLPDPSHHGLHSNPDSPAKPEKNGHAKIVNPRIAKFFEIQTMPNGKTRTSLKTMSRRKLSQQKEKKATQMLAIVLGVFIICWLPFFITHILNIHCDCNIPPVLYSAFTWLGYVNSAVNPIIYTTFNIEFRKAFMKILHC
Assay: Dopamine D2 receptor binding ([3H]spiperone)
Conditions: rat striatum
pKi: −log10 of the molar value.
quantity: pKi

Give pKi for CN(C)CCC(Oc1cccc2c1OCO2)c1ccc(OCCCN2CCCCC2)cc1.O=C(O)C(=O)O (stereo not shown) [Compound 11b]
< 6.00

###

// endpoint pKi / system UniProtKB Q63380
Sequence (Q63380 1-617): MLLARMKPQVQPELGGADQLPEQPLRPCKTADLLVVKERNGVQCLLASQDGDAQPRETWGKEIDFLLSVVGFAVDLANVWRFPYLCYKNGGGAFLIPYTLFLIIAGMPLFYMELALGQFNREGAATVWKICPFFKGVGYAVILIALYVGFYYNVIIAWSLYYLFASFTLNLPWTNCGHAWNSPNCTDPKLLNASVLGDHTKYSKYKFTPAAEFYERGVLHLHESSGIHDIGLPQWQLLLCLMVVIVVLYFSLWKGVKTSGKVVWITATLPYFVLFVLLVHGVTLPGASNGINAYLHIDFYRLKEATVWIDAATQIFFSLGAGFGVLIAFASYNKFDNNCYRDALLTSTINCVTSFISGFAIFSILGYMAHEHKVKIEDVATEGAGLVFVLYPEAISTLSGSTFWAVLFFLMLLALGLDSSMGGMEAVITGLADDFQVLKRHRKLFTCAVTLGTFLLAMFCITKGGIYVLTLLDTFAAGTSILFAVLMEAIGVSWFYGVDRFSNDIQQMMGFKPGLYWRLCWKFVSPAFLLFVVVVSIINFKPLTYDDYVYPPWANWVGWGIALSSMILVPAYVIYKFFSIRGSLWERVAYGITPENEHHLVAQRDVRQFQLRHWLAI
Note: pKi values are expressed as the negative base-10 logarithm of concentration in M.

compound: CN(C)CCC(Oc1cccc2c1OCO2)c1ccc(OCCN2CCCCC2)cc1.O=C(O)C(=O)O (centres unmarked) [Compound 11n]
tested system: UniProtKB Q63380
pKi: 7.43

Give reported pKi for CN(C)CCC(Oc1cccc2c1OCO2)c1ccc(OCCCCN2CCCCC2)cc1.O=C(O)C(=O)O (centres unmarked) [Compound 11o] (UniProtKB Q63380)
7.19

Give reported pKi for CN(C)CCC(Oc1cccc2c1OCO2)c1ccc(OCCCN2CCOCC2)cc1.O=C(O)C(=O)O (centres unmarked) [Compound 11c] (UniProtKB Q63380)
7.49

Give reported pKi for CCN1CCN(CCCOc2ccc(C(CCN(C)C)Oc3cccc4c3OCO4)cc2)CC1.O=C(O)C(=O)O (centres unmarked) [Compound 11e] (UniProtKB Q63380)
7.17

Give reported pKi for CN(C)CCCOc1ccc(C(CCN(C)C)Oc2cccc3c2OCO3)cc1.O=C(O)C(=O)O (centres unmarked) [Compound 11l] (UniProtKB Q63380)
6.94

Give reported pKi for CCN(CC)CCCOc1ccc(C(CCN(C)C)Oc2cccc3c2OCO3)cc1.O=C(O)C(=O)O (centres unmarked) [Compound 11m] (UniProtKB Q63380)
7.07

Give reported pKi for CN(C)CCC(Oc1cccc2c1OCO2)c1ccc(OCCCN2CC3CCCC3C2)cc1.O=C(O)C(=O)O (centres unmarked) [Compound 11g] (UniProtKB Q63380)
7.32

Give reported pKi for CC(C)N1CCN(CCCOc2cccc(C(CCN(C)C)Oc3cccc4c3OCO4)c2)CC1.O=C(O)C(=O)O (centres unmarked) [Compound 11k] (UniProtKB Q63380)
6.95

###

Target: Histamine H2 receptor (Homo sapiens, UniProt P25021)
Sequence (P25021 whole entry): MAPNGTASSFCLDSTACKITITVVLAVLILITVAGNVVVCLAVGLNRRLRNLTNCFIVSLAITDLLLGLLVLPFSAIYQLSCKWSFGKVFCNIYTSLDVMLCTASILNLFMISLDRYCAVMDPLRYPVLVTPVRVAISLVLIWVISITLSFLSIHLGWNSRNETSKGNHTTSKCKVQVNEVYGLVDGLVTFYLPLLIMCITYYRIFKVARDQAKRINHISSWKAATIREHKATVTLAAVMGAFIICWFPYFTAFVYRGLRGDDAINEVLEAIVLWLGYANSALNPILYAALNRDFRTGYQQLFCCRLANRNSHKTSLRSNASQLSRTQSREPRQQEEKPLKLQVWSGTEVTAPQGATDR
pKi: −log10 of the molar value.
quantity: pKi

Give reported pKi for CN(C)CCC(Oc1cccc2c1OCO2)c1ccc(OCCCN2CCCCC2)cc1.O=C(O)C(=O)O (stereo not shown) [Compound 11b] (Histamine H2 receptor (Homo sapiens, UniProt P25021))
< 6.00

###

Molecular target: σ1 receptor (Cavia porcellus, UniProt Q60492)
Sequence (Q60492 whole entry): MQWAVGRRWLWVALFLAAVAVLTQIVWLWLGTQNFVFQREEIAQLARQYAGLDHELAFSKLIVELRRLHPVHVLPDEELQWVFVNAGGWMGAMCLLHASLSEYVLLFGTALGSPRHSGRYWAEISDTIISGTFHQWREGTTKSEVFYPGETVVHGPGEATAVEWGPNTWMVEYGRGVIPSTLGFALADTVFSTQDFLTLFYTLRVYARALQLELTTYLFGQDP
quantity: Ki

Give reported Ki for CN(C)CCC(Oc1cccc2c1OCO2)c1ccc(OCCCN2CCCCC2)cc1.O=C(O)C(=O)O (stereo not shown) [Compound 11b] (σ1 receptor (Cavia porcellus, UniProt Q60492))
> 1000 nM
